# system-tested: mushroom tyrosinase
# assay-notes: Mushroom tyrosinase inhibition assay and IC50 determination
# applied-conditions: Dixon plot
value-type: pKi
On this scale, pKi is minus log10 of a concentration expressed in M (mol/L).

[Q] Record request: pKi value, item Oc1ccc(CSCc2ccc(O)cc2)cc1 [T1, bis(4-hydroxybenzyl)sulfide]
[A] 7.24

====

# assay-notes: Cell viability
# Type: cell-based, human
# applied-conditions: human, normal human epidermal melanocytes
value-type: viability at 72 h, 50 µM (%)
All answers are understood in %, so give the number only.

[Q] Record request: viability at 72 h, 50 µM value, item Oc1ccc(CSCc2ccc(O)cc2)cc1 [T1, bis(4-hydroxybenzyl)sulfide]
[A] 97.2

====

# assay-notes: Cell viability
# Format: cell-based, human
# applied-conditions: human, normal human epidermal melanocytes
value-type: viability at 72 h, 5 µM (%)
All answers are understood in %, so give the number only.

[Q] Record request: viability at 72 h, 5 µM value, item Oc1ccc(CSCc2ccc(O)cc2)cc1 [T1, bis(4-hydroxybenzyl)sulfide]
[A] 99.2

====

# system-tested: mushroom tyrosinase
# assay-notes: Mushroom tyrosinase inhibition assay and IC50 determination
# applied-conditions: L-tyrosine substrate, dopachrome at 475 nm, triplicate
value-type: pIC50
On this scale, pIC50 is minus log10 of a concentration expressed in M (mol/L).

[Q] Record request: pIC50 value, item Oc1ccc(CSCc2ccc(O)cc2)cc1 [T1, bis(4-hydroxybenzyl)sulfide]
[A] 6.28
